Tested on: plants
procedure-details: Test D pre-emergence, other plants of Tables D1 and D3
Type: in vivo
condition-details: ELEIN; preemergent; rate 60; 20 DAA
Entries annotated with measured damage to plant (100=total damage to plant; 0=no damage to plant), ELEIN
measured-quantity: damage to plant (100=total damage to plant; 0=no damage to plant), ELEIN

compound: CN1CC(c2cc(C(F)(F)F)n(C)n2)C(C(=O)Nc2cccc(F)c2F)C1=O (racemic) [Compound 3]
numeric-value: 0

compound: CN1CC(c2cc(C(F)(F)F)n(C)n2)C(C(=O)Nc2ccc(F)nc2F)C1=O (racemic) [Compound 22]
numeric-value: 0

compound: CN1C[C@H](c2nn(C)c3c(F)cccc23)[C@@H](C(=O)Nc2cccc(F)c2F)C1=O [Compound 2]
numeric-value: 0

compound: COc1c(F)cccc1NC(=O)C1C(=O)N(C)CC1c1cc(C(F)(F)F)n(C)n1 (racemic) [Compound 18]
numeric-value: 0

compound: CCn1nc([C@H]2CN(C)C(=O)[C@@H]2C(=O)Nc2cccc(F)c2F)c2c(F)cccc21 [Compound 7]
numeric-value: 10

* * *

Below is a list of entries, each paired with its recorded damage to plant (100=total damage to plant; 0=no damage to plant), SORVU value.
Tested on: plants
procedure-details: Test D pre-emergence, other plants of Tables D1 and D3
Assay type: in vivo
condition-details: SORVU; preemergent; rate 130; 20 DAA
measured-quantity: damage to plant (100=total damage to plant; 0=no damage to plant), SORVU

compound: COc1c(F)cccc1NC(=O)C1C(=O)N(C)CC1c1cc(C(F)(F)F)n(C)n1 (racemic) [Compound 18]
numeric-value: 0
--
compound: CN1C[C@H](c2nn(C)c3c(F)cccc23)[C@@H](C(=O)Nc2cccc(F)c2F)C1=O [Compound 2]
numeric-value: 0
--
compound: CN1CC(c2cc(C(F)(F)F)n(C)n2)C(C(=O)Nc2ccc(F)nc2F)C1=O (racemic) [Compound 22]
numeric-value: 0
--
compound: CCn1nc([C@H]2CN(C)C(=O)[C@@H]2C(=O)Nc2cccc(F)c2F)c2ccc(F)cc21 [Compound 4]
numeric-value: 10
--
compound: CN1CC(c2cc(C(F)(F)F)n(C)n2)C(C(=O)Nc2ccc(F)c(F)c2F)C1=O (racemic) [Compound 17]
numeric-value: 0

* * *

Tested on: plants
procedure-details: Test D pre-emergence, other plants of Tables D1 and D3
Format: in vivo
condition-details: ELEIN; preemergent; rate 500; 20 DAA
damage to plant (100=total damage to plant; 0=no damage to plant), ELEIN listing for selected compounds.
measured-quantity: damage to plant (100=total damage to plant; 0=no damage to plant), ELEIN

compound: CN1CC(c2cc(C(F)(F)F)n(C)n2)C(C(=O)Nc2ccccc2F)C1=O (racemic) [Compound 9]
numeric-value: 0
--
compound: CCn1nc([C@H]2CN(C)C(=O)[C@@H]2C(=O)Nc2cccc(F)c2F)c2c(F)cccc21 [Compound 7]
numeric-value: 70
--
compound: CN1CC(c2cc(C(F)(F)F)n(C)n2)C(C(=O)Nc2cccc(F)c2C(F)(F)F)C1=O (racemic) [Compound 19]
numeric-value: 0
--
compound: CN1CC(c2cc(C(F)(F)F)n(C)n2)C(C(=O)Nc2ccc(F)cc2F)C1=O (racemic) [Compound 6]
numeric-value: 0

* * *

System: plants
procedure-details: Test D pre-emergence, other plants of Tables D1 and D3
Type: in vivo
condition-details: pre-emergence, rate 500, 20 DAA, 100=total damage, 0=no damage
Item-by-item account of damage to plant, ALOMY

molecule: COc1c(F)cccc1NC(=O)C1C(=O)N(C)CC1c1cc(C(F)(F)F)n(C)n1 (racemic) [Compound 18]
damage to plant, ALOMY: 60
--
molecule: CCn1nc([C@@H]2CN(C)C(=O)[C@H]2C(=O)Nc2cccc(F)c2F)c2cccc(F)c21 [Compound 14]
damage to plant, ALOMY: 70
--
molecule: CN1CC(c2cc(C(F)(F)F)n(C)n2)C(C(=O)Nc2cccc(F)n2)C1=O (racemic) [Compound 24]
damage to plant, ALOMY: 10
--
molecule: CN1CC(c2cc(C(F)(F)F)n(C)n2)C(C(=O)Nc2cccc(F)c2C(F)(F)F)C1=O (racemic) [Compound 19]
damage to plant, ALOMY: 70
--
molecule: CN1CC(c2cc(C(F)(F)F)n(C)n2)C(C(=O)Nc2ccccc2F)C1=O (racemic) [Compound 9]
damage to plant, ALOMY: 0

* * *

Test system: velvetleaf (Abutilon theophrasti, ABUTH)
procedure-details: Test A pre-emergence, velvetleaf
Format: in vivo
condition-details: Pre-Emergence at 250 g/ha; after 13 d
measured-quantity: damage to plant (100=total damage; 0=no damage) ABUTH

compound: CN1CC(c2cc(Cl)n(C)n2)C(C(=O)Nc2ccc(F)c(F)c2F)C1=O (racemic) [Compound 31]
assay-system: velvetleaf (Abutilon theophrasti, ABUTH)
numeric-value: 0

compound: CCn1nc([C@H]2CN(C)C(=O)[C@@H]2C(=O)Nc2cccc(F)c2F)c2cc(F)ccc21 [Compound 8]
assay-system: velvetleaf (Abutilon theophrasti, ABUTH)
numeric-value: 0

compound: CCn1nc([C@H]2CN(C)C(=O)[C@@H]2C(=O)Nc2ccc(F)nc2F)c2cccc(F)c21 [Compound 11]
assay-system: velvetleaf (Abutilon theophrasti, ABUTH)
numeric-value: 0

compound: CN1CC(c2cnn(C)c2C(F)(F)F)C(C(=O)Nc2cccc(F)c2F)C1=O (racemic) [Compound 25]
assay-system: velvetleaf (Abutilon theophrasti, ABUTH)
numeric-value: 40

* * *

Recorded damage to plant (100=total damage; 0=no damage) ZEAMX, one value per entry.
Tested on: corn (Zea mays, ZEAMX)
procedure-details: Test A post-emergence, corn
Type: in vivo
condition-details: Post-Emergence at 15.625 g/ha; after 13 d
measured-quantity: damage to plant (100=total damage; 0=no damage) ZEAMX

compound: CN1CC(c2cc(C(F)(F)F)n(C)n2)C(C(=O)Nc2ccc(F)c(F)c2F)C1=O (racemic) [Compound 17]
numeric-value: 10

compound: CN1CC(c2cc(C(F)(F)F)n(C)n2)C(C(=O)Nc2cccc(F)c2OC(F)(F)F)C1=O (racemic) [Compound 16]
numeric-value: 0

compound: CN1CC(c2cc(C(F)(F)F)n(C)n2)C(C(=O)Nc2cccc(F)c2C(F)(F)F)C1=O (racemic) [Compound 19]
numeric-value: 0

compound: COc1c(F)cccc1NC(=O)C1C(=O)N(C)CC1c1cc(C(F)(F)F)n(C)n1 (racemic) [Compound 18]
numeric-value: 0

compound: CCn1nc([C@@H]2CN(C)C(=O)[C@H]2C(=O)Nc2cccc(F)c2F)c2cccc(F)c21 [Compound 14]
numeric-value: 70

compound: CN1CC(c2cc(C(F)(F)F)n(C)n2)C(C(=O)Nc2cccc(F)n2)C1=O (racemic) [Compound 24]
numeric-value: 0

compound: CN1CC(c2cc(C(F)(F)F)n(C)n2)C(C(=O)Nc2ccccc2F)C1=O (racemic) [Compound 9]
numeric-value: 20

compound: Cn1nc([C@H]2CNC(=O)[C@@H]2C(=O)Nc2cccc(F)n2)cc1C(C)(C)C [Compound 1]
numeric-value: 0

* * *

damage to plant, BEAVA listing for selected compounds.
Tested on: plants
procedure-details: Test D pre-emergence, other plants of Tables D1 and D3
Assay type: in vivo
condition-details: pre-emergence, rate 60, 20 DAA, 100=total damage, 0=no damage

compound: CN1CC(c2cc(C(F)(F)F)n(C)n2)C(C(=O)Nc2ccc(F)cc2C(C)(F)F)C1=O (racemic)
assay-system: plants
damage to plant, BEAVA: 0

compound: CN1CC(c2cc(C(F)(F)F)n(C)n2)C(C(=O)Nc2cccc(F)c2F)C1=O (racemic)
assay-system: plants
damage to plant, BEAVA: 0

compound: CCn1nc([C@H]2CN(C)C(=O)[C@@H]2C(=O)Nc2cccc(F)c2F)c2ccc(F)cc21
assay-system: plants
damage to plant, BEAVA: 0

compound: CN1CC(c2cc(C(F)(F)F)n(C)n2)C(C(=O)Nc2ccc(F)cc2F)C1=O (racemic)
assay-system: plants
damage to plant, BEAVA: 0

* * *

Tested on: plants
procedure-details: Test D post-emergence, other plants of Tables D2 and D4
Format: in vivo
condition-details: ALOMY; "Cereals" Postemergent; Rates 500; evaluated after 15 d
measured-quantity: ALOMY damage rating (100=total damage to plant; 0=no damage to plant)

compound: CN1C[C@H](c2nn(C)c3c(F)cccc23)[C@@H](C(=O)Nc2cccc(F)c2F)C1=O
numeric-value: 30
--
compound: CN1CC(c2cc(C(F)(F)F)n(C)n2)C(C(=O)Nc2ccc(F)nc2F)C1=O (racemic)
numeric-value: 10
--
compound: CCn1nc([C@@H]2CN(C)C(=O)[C@H]2C(=O)Nc2cccc(F)c2F)c2cccc(F)c21
numeric-value: 70
--
compound: COc1c(F)cccc1NC(=O)C1C(=O)N(C)CC1c1cc(C(F)(F)F)n(C)n1 (racemic)
numeric-value: 40
